fold repression overview
Target: T1, ECF34_1384
T1 chain: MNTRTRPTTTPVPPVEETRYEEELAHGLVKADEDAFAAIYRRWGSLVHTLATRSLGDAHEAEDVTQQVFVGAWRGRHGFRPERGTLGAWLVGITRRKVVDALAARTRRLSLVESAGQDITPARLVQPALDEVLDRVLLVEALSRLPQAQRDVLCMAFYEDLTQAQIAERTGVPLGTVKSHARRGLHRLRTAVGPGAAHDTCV
// print number alone

Some entries whose results are on file:
binder="AS31_34 (protein) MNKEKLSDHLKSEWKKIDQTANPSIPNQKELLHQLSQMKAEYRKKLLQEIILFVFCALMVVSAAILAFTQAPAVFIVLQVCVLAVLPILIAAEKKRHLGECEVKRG" measurement_type="fold repression" readout_number=2.98
binder="AS22_4450 (protein) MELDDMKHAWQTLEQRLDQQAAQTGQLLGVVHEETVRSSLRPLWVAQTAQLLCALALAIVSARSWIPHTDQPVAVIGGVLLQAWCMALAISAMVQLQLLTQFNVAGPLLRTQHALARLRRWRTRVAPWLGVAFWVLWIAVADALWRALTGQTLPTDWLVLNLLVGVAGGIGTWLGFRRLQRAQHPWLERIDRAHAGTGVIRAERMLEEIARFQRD" measurement_type="fold repression" readout_number=1.66

Quickly give me recorded fold repression for AS27_1331 (protein) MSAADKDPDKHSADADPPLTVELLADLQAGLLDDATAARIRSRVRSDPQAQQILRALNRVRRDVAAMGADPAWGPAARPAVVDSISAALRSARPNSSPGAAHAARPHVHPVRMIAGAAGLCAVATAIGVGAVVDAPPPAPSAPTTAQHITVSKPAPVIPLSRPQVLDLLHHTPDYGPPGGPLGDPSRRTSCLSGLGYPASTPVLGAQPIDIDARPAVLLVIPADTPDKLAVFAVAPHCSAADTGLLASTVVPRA
2.35
